Form field: CC50 (one value per entry).
# experiment_summary: Cytotoxicity (CC50) in parallel plates of the anti-HCV assay
# Assay type: cell-based
# cond: human, AVA5 HCV replicon cells (sub-genomic CON1, genotype 1b)

Example cases with answers are listed next.
# compound, CC50
rows = [
    ("CNC(=O)c1csc(-c2cn([C@@H]3O[C@H](CO)[C@@H](O)[C@@]3(C)O)c3ncnc(N)c23)c1 [Compound e]", "20 to 100 µM"),
    ("CNC(=O)c1csc(-c2cn([C@@H]3O[C@H](CO)[C@@H](O)[C@H]3O)c3ncnc(N)c23)c1 [Compound o]", "20 to 100 µM"),
    ("C[C@@]1(F)[C@H](O)[C@@H](CO)O[C@H]1n1cc(Br)c2c(N)ncnc21 [Compound c]", "20 to 100 µM"),
    ("CC(C)CCNc1ncnc2c1c(C(=N)NO)cn2[C@@H]1O[C@H](CO)[C@@H](O)[C@H]1O [Compound n]", "1 to 20 µM"),
    ("CCCCCCCCCCCCCCCCOCCCOP(=O)(O)OC[C@H]1O[C@@H](n2cc(C(N)=S)c3c(N)ncnc32)[C@H](O)[C@@H]1O [Compound h]", "< 1 µM"),
]

Shift focus to the following entry.
Query: // returns reported CC50 for input CCCCCCCCCCCCCCCCOCCCOP1(=O)OC[C@H]2O[C@@H](n3cc(C(N)=S)c4c(N)ncnc43)[C@H](O)[C@@H]2O1 (stereo partly drawn) [Compound q]
Reply: 1 to 20 µM

---

Form field: CC50 at 6 days (one value per entry).
# experiment_summary: MT4 Cell Toxicity Assay
# Type: cell-based
# cond: human, MT-4 (TC50) (μM)
# Protocol: Cells used: MT4 cells were obtained from NIH AIDS research & Reference Reagent Program. Cells were used up to passage 30. Toxicity assay using MTS: 5,000 MT4 cells were plated per well in a 96-well plate. Compounds were diluted in DMSO and further diluted with medium before adding to the plated cells. Plates were then incubated in a CO2 incubator at 37° C. for 6 days. […]

Example cases with answers are listed next.
# compound, CC50 at 6 days
records = [
    ("[N-]=[N+]=N[C@H]1C(O)C(CO)OC1n1cc(C(N)=S)c2c(N)ncnc21 (stereo partly shown)", "> 100 µM"),
    ("CCCCCCCCCCCCCCCCOCCCOP(=O)(O)OC[C@H]1O[C@@H](n2cc(C(N)=S)c3c(N)ncnc32)[C@H](O)[C@@H]1O", "< 1 µM"),
    ("C[C@]1(O)C(n2cc(C(N)=S)c3c(N)ncnc32)O[C@H](CO)[C@H]1O (stereo partly shown)", "1 to 20 µM"),
]

Query: // returns reported CC50 at 6 days for input C[C@@]1(O)[C@H](O)[C@@H](CO)O[C@H]1n1cc(C#N)c2c(N)ncnc21
Reply: 20 to 100 µM

Query: // returns reported CC50 at 6 days for input CCCCCCCCCCCCCCCCOCCCOP1(=O)OC[C@H]2O[C@@H](n3cc(C(N)=S)c4c(N)ncnc43)[C@H](O)[C@@H]2O1 (stereo partly shown)
Reply: < 1 µM

Query: // returns reported CC50 at 6 days for input CC(C)=CCNc1ncnc2c1c(/C(N)=N\O)cn2[C@@H]1O[C@H](CO)[C@@H](O)[C@H]1O
Reply: > 100 µM

Query: // returns reported CC50 at 6 days for input Nc1ncnc2c1c(Br)cn2[C@@H]1O[C@H](CO)[C@@H](O)[C@H]1O
Reply: 1 to 20 µM

Query: // returns reported CC50 at 6 days for input CCCCCCCCCCCCCCCCOCCCOP(=O)(O)OC[C@H]1O[C@@H](n2cc(C#N)c3c(N)ncnc32)[C@H](O)[C@@H]1O
Reply: < 1 µM

Query: // returns reported CC50 at 6 days for input COC(=N)c1cn(CC2(F)COC(CO)C2O)c2ncnc(N)c12 (stereo not shown)
Reply: 20 to 100 µM

Query: // returns reported CC50 at 6 days for input CC(C)CCNc1ncnc2c1c(C(=N)NO)cn2[C@@H]1O[C@H](CO)[C@@H](O)[C@H]1O
Reply: > 100 µM

---

Form field: CC50 at 6 days (one value per entry).
# experiment_summary: MT4 Cell Toxicity Assay
# Format: cell-based
# cond: human; MT4 cells, 6 days, MTS; read-out: MT-4 (TC50)

# compound, measure_name, observed_measurement
rows = [
    ("COC(=O)[C@H](C)NP(=O)(OC[C@H]1O[C@@H](n2cc(C(N)=S)c3c(N)ncnc32)[C@H](O)[C@@H]1O)Oc1ccccc1 (stereo partly drawn)", "CC50 at 6 days", "< 1 µM"),
    ("NC(=S)c1cn(C2O[C@H](CO)[C@@H](O)[C@H]2O)c2ncnc(N)c12 (stereo partly drawn)", "CC50 at 6 days", "< 1 µM"),
]

Shift focus to the following entry.
Query: // returns reported CC50 at 6 days for input COC(=O)[C@H](C)NP(=O)(OC[C@H]1O[C@@H](n2cc(C(N)=S)c3c(N)ncnc32)[C@](C)(O)[C@@H]1O)Oc1ccccc1 (stereo partly drawn)
Reply: 20 to 100 µM

---

# experiment_summary: Cytotoxicity (CC50) in parallel plates of the anti-HCV assay
# Type: cell-based
# cond: human, AVA5 HCV replicon cells (sub-genomic CON1, genotype 1b)
measure_name: CC50

# compound, observed_measurement
data = [
    ("[N-]=[N+]=N[C@H]1C(O)C(CO)OC1n1cc(C(N)=S)c2c(N)ncnc21 (stereo partly drawn)", "1000 to 20000 nM"),
]

Query: // returns reported CC50 for input CC(C)=CCNc1ncnc2c1c(/C(N)=N\O)cn2[C@@H]1O[C@H](CO)[C@@H](O)[C@H]1O
Reply: < 1000 nM

Query: // returns reported CC50 for input CCCCCCCCCCCCCCCCOCCCOP(=O)(O)OC[C@H]1O[C@@H](n2cc(C#N)c3c(N)ncnc32)[C@H](O)[C@@H]1O
Reply: < 1000 nM

Reference for the values: patent US20100297079A1
